target: Bromodomain-containing protein 4 (Homo sapiens); assay: Inhibition of His6-tagged recombinant BRD4 BD1 domain (44 to 168 residues) (unknown origin) expressed in Escherichia coli BL21(DE3) incubated for 0.5 hrs by FITC-labeled JQ1 based competitive fluorescence polarization assay
pIC50: −log10 of the molar value.
Recorded measurements of pIC50, one per entry
readout type: pIC50

| structure notation | readout type | result |
| --- | --- | --- |
| CC[C@H](C)[C@H](NC(=O)C[C@@H]1N=C(c2ccc(Cl)cc2)c2c(sc(C)c2C)-n2c(C)nnc21)C(=O)OCCN1CCN(c2cc(Nc3ncc(C(=O)Nc4c(C)cccc4Cl)s3)nc(C)n2)CC1 | pIC50 | < 6.00 |
| Cc1nc(Nc2ncc(C(=O)Nc3c(C)cccc3Cl)s2)cc(N2CCN(CCOC(=O)[C@@H]3CCCCN3C(=O)C[C@@H]3N=C(c4ccc(Cl)cc4)c4c(sc(C)c4C)-n4c(C)nnc43)CC2)n1 | pIC50 | < 6.00 |
| Cc1nc(Nc2ncc(C(=O)Nc3c(C)cccc3Cl)s2)cc(N2CCN(C(=O)[C@@H]3CCCCN3C(=O)C[C@@H]3N=C(c4ccc(Cl)cc4)c4c(sc(C)c4C)-n4c(C)nnc43)CC2)n1 | pIC50 | < 6.00 |
